test: activity coefficient (dimensionless); of the first substance listed, at infinite dilution; xn = mol fraction of the nth substance listed; details: 298.15 K; 101 kPa; Liquid; Chromatography; x1 = 0
propertyLabel: activity coefficient

{"compound": "CC(C)S [2-propanethiol] + O", "activity coefficient": 1140}
{"compound": "CCOC(C)(C)CC [1,1-dimethylpropyl ethyl ether] + O", "activity coefficient": 1990}
{"compound": "CCCS [1-propanethiol] + O", "activity coefficient": 1500}

[A] CCOC(C)(C)C [2-ethoxy-2-methylpropane] + O
[B] COC(C)(C)C [2-methoxy-2-methylpropane] + O
[C] CCOC(C)(C)CC(C)(C)C [ethyl 1,1,3,3-tetramethylbutyl ether] + O
[D] CCCCS [1-butanethiol] + O
[E] c1ccsc1 [thiophene] + O
Sort by activity coefficient, descending. Response field: labels, in requested order.
C, D, E, A, B
(C: 143000, D: 6040, E: 1270, A: 514, B: 139)
